- Test system: cancer cell lines from the cancer cell line encyclopedia (CCLE)
- ASSAY_NAME: Cell line profiling (CLiP) proliferation experiment
- Assay type: cell-based
- ASSAY_SETUP: Homo sapiens, HT55, cell line HT55; read-out: Crossing Point
REPORTED_METRIC: IC50

Hey, cancer cell lines from the cancer cell line encyclopedia (CCLE) data for CC(C)[C@@]12C[C@@H](O)[C@@](C)(O1)[C@@H]1CC[C@@H](C)[C@H]1[C@@H]2OC(=O)/C=C/c1ccccc1 [Englerin B] : IC50 came out at > 30 µM

###

- Tested on: cancer cell lines from the cancer cell line encyclopedia (CCLE)
- ASSAY_NAME: Cell line profiling (CLiP) proliferation experiment
- Type: cell-based
- ASSAY_SETUP: Homo sapiens, NCI-H3255, NCI-H3255 cells; read-out: Crossing Point
REPORTED_METRIC: IC50 (µM)
Field: numeric (µM). Do not append units.

CC(C)[C@@]12C[C@@H](O)[C@@](C)(O1)[C@@H]1CC[C@@H](C)[C@H]1[C@@H]2OC(=O)/C=C/c1ccccc1 has a reported IC50 of 27

Data provenance is paper PMC4476799.
